Target: recombinant eIF4E (Homo sapiens (Human), UniProt P06730)
Sequence (P06730 whole entry): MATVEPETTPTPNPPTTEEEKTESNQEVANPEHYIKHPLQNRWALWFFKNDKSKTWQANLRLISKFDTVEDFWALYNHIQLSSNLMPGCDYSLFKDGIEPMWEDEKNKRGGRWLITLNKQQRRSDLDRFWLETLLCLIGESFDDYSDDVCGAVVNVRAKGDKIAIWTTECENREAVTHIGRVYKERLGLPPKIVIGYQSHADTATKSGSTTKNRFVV
Test: Fluorescence polarization competition assay for eIF4E binding potency
Details: fluorescence polarization competition, 75 nM recombinant eIF4E, 20 nM EDA-m7GDP-ATTO-550; IC50 class; read-out: elF4E FP
pIC50: −log10 of the molar value.
measurement.name: pIC50

molecule: Cc1nc2cnc(N3CC4(CC(N(C)C5CC5)C4)C3)c(C#N)c2c(=O)n1CC#Cc1ccc(Cl)cc1-c1ccnc2c(C(=O)O)csc12
system.name: recombinant eIF4E (Homo sapiens (Human), UniProt P06730)
measured.result: > 7.30

Name the reported pIC50 value associated with the molecule Cc1nc2cc(C(F)(F)F)c(CN3CCN(C)CC3)c(C#N)c2c(=O)n1CCOc1ccc(Cl)cc1-c1ccnc2c(C(=O)O)csc12
> 7.30

What would you report for Cc1nc2cnc(N(C)C3CCN(CC(C)(F)F)CC3)c(C#N)c2c(=O)n1CC#Cc1ccc(Cl)cc1-c1ccnc2c(C(=O)NS(=O)(=O)c3cccnc3)csc12 ?
> 7.30

Same for Cc1nc2cc(C#N)c(C(F)F)c(C#N)c2c(=O)n1CCOc1ccc(Cl)cc1-c1cccc(C(=O)O)c1
> 7.30

# iterate: Cc1cccc(-c2c(C(F)(F)F)cc3nc(C)n(CCOc4ccc(Cl)cc4-c4cc(C)nc5c(C(=O)O)csc45)c(=O)c3c2C#N)n1
> 7.30

Please give the result for CCc1ncc(C#N)c2c(=O)n(CCOc3ccc(Cl)cc3-c3cc(C)nc4c(C(=O)O)csc34)c(C)nc12 too.
> 7.30

What do you get for Cc1nc2c(C(F)F)ccc(C#N)c2c(=O)n1CCOc1ccc(Cl)cc1-c1cccc(C(=O)O)c1 ?
> 7.30

Please give the result for CC(C)(C#N)c1cc(C(=O)O)cc(-c2cc(Cl)ccc2OCCn2cnc3cnc(C#N)cc3c2=O)c1 too.
< 6.00

Another: Cc1cc(-c2cc(Cl)ccc2OCCn2c(C)nc3cc(C(F)(F)F)c(N4CCN(C)CC4)cc3c2=O)c2scc(C(=O)O)c2n1
> 7.30

----------
Target: recombinant eIF4E (Homo sapiens (Human), UniProt P06730)
Assay: Fluorescence polarization competition assay for eIF4E binding potency
Conditions: fluorescence polarization competition, 75 nM recombinant eIF4E, 20 nM EDA-m7GDP-ATTO-550; IC50 class; read-out: elF4E FP
pIC50: −log10 of the molar value.
measurement.name: pIC50

line.notation: N#Cc1ccc2ncn(CCOc3ccc(Cl)cc3-c3cccc(C(=O)O)c3)c(=O)c2c1
pIC50: 6.00 to 7.30

line.notation: N#Cc1cc2c(=O)n(CCOc3ccc(Cl)cc3-c3cc(C(=O)O)c4ncccc4c3)cnc2cn1
pIC50: < 6.00

line.notation: Cc1cc(-c2cc(Cl)ccc2OCCn2c(C)nc3cc(CNC(C)(C)C)c(OC(F)F)c(C#N)c3c2=O)c2scc(C(=O)O)c2n1
pIC50: > 7.30

Here's the next entry for you.
Recorded pIC50 for Cc1cc(-c2cc(Cl)ccc2OCCn2c(C)nc3c(C)ncc(C#N)c3c2=O)c2scc(C(=O)O)c2n1 , please?
> 7.30

----------
// values below are reported pIC50
Biological target: recombinant eIF4E (Homo sapiens (Human), UniProt P06730)
Experiment: Fluorescence polarization competition assay for eIF4E binding potency
Details: fluorescence polarization competition, 75 nM recombinant eIF4E, 20 nM EDA-m7GDP-ATTO-550; IC50 class; read-out: elF4E FP
pIC50: −log10 of the molar value.

# count of solved cases: 5
line.notation: CCc1cccc(-c2c(C(F)(F)F)cc3nc(C)n(CCOc4ccc(Cl)cc4-c4cc(C)nc5c(C(=O)O)csc45)c(=O)c3c2C#N)n1
pIC50: > 7.30
//
line.notation: Cc1nc2cnc(N(C)C3CCN([C@H]4C[C@H](OC(F)F)C4)CC3)c(C#N)c2c(=O)n1CC#Cc1ccc(Cl)cc1-c1ccnc2c(C(=O)O)csc12
pIC50: > 7.30
//
line.notation: CCc1cc(-c2cc(Cl)ccc2OCCn2c(C)nc3cc(C(F)(F)F)c(N4CCN(C)CC4)nc3c2=O)c2scc(C(=O)O)c2n1
pIC50: > 7.30
//
line.notation: Cc1cc(-c2cc(Cl)ccc2OCCn2c(C)nc3cc(Cl)c(N4CCN(C(C)(C)C)CC4)c(C#N)c3c2=O)c2sc(C)c(C(=O)O)c2n1
pIC50: > 7.30
//
line.notation: Cc1nc2cc(C(F)(F)F)c(N3CCN(c4ccccn4)CC3)c(C#N)c2c(=O)n1CCOc1ccc(Cl)cc1-c1cccc(C(=O)O)c1
pIC50: > 7.30

In the following, a different molecule is considered.
Quick one: pIC50 of Cc1nc2cc(C(F)(F)F)cc(C#N)c2c(=O)n1CCOc1ccc(Cl)cc1-c1ccnc2c(C(F)(F)C(=O)O)csc12 ?
6.00 to 7.30

The reported measurements were obtained from patent US11286268B1.
